Assign cell count to each entry below.
- protocol details: GPR55 agonists via beta-arrestin recruitment, primary screen, imaging, U2OS cells, beta-arrestin-GFP redistribution (AID 1961);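 also: U2OS osteosarcoma cells stably expressing GPR55 and beta-arrestin-GFP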
- run conditions: measured here: cytotoxicity, cells analyzed, at 10 µM
The whole screen tested about 290,000 compounds, of which about 140 (0.048%) were called active. The list comes from a sample in which actives are over-represented; it also holds close analogues and randomly drawn compounds.
Give bare numbers, in cells.

> print(dat)
                      input.smiles  assay.endpoint  units.label  measured.value
1  Cc1nc2ccc(NC(=O)CCC3CCCC3)cc2s1      cell count        cells             329

For each listed entry, give its cell count.
1. COc1cccc(-c2nnc3n2N=C(c2cc(OC)ccc2OC)CS3)c1
2. O=[N+]([O-])c1ccc(N/N=C/c2sc(N3CCOCC3)nc2-c2ccccc2)c(S(=O)(=O)Nc2ccccc2Cl)c1
3. Cn1c(SCC(=O)NNC(=O)Nc2ccc(Cl)cc2)nnc1-c1ccccc1

Result ::
[449, 413, 332]

---

- measured on: G-protein coupled receptor 55 (Homo sapiens)
- protocol details: GPR55 agonists via beta-arrestin recruitment, primary screen, imaging, U2OS cells, beta-arrestin-GFP redistribution (AID 1961);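 also: U2OS osteosarcoma cells stably expressing GPR55 and beta-arrestin-GFP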
- run conditions: at 10 µM
The campaign covered roughly 290,000 compounds. About 140 (0.048%) were called active.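 Rule for the calls: active = activation above 40% with more than 50 cells counted in the well; inconclusive = wells holding fewer than 50 cells, flagged as toxic or sparse; inactive = the rest.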 The sample as a whole holds a higher share of actives than the screen did.
Answer with one of the outcomes active, inactive

> print(dat)
                                   molecule  class.name
1  CC(C)N1CCN(Cc2ccc(C#CC(C)(C)O)s2)CC1CCO (stereo unspecified)    inactive

Query :: Hello, I am checking results. What call was entered for Cc1c(C2N3CC4(C)CN2CC(C)(C3)C4=O)c2ccccc2n1C (stereo unspecified) ?
Result :: inactive

Query :: What do we get for `O=C(O)c1ccc(NC(=O)c2ccc3c(c2)C(=O)N(c2ccccc2)C3=O)cc1` ?
Result :: inactive

---

- measured on: G-protein coupled receptor 55 (Homo sapiens)
- protocol details: GPR55 agonists via beta-arrestin recruitment, primary screen, imaging, U2OS cells, beta-arrestin-GFP redistribution (AID 1961);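 also: U2OS osteosarcoma cells stably expressing GPR55 and beta-arrestin-GFP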;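 as to activation: plate controls were DMSO negative control for no effect and LPI positive control for full effect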
- run conditions: at 10 µM, stronger effect = higher value
Out of some 290,000 compounds screened, about 140 (0.048%) were called active. The list comes from a sample in which actives are over-represented; it also holds close analogues and randomly drawn compounds.
assay endpoint: activation (%)
One number for each entry, in %.

Before answering, review these 2 worked examples.
> print(dat)
                                   molecule  measured.value
1    CS(=O)(=O)N(CC(=O)NCCc1ccccc1)C1CCCCC1            -0.1
2  CC(=O)c1c(C)[nH]c(C(=O)NCCc2c[nH]c3ccccc23)c1C            -0.1

Batch request: activation per item, same order as input.
1. FC(F)(F)c1cc(C(F)(F)F)c2ccc(N/N=C/c3cccc(Cl)c3)nc2n1
2. CCc1ccccc1NC(=O)c1ccc(-c2csc(C)n2)cc1
3. Cc1ccc(/C=N/Nc2ccc3c(C(F)(F)F)cc(C(F)(F)F)nc3n2)cc1

Result ::
[59.1, -0.1, -0.2]

For each of the molecules below, state activation.
1. CCCc1nnc2n1N=C(c1ccc(-c3cc(Cl)ccc3Cl)o1)CS2
2. O=C(COC(=O)/C=C/c1cccc(Cl)c1)NCCc1ccc(Cl)cc1Cl
3. c1ccc(-c2cnn3c(-c4ccccc4)c(-c4ccccc4)nc3n2)cc1
4. CCN1CCCC1CNCc1cc(OC)c(OC)c(OC)c1 (stereo unspecified)

Result ::
[142, 0, 42.5, -0.1]

Okay, here is my list. What is activation for each of these?
1. COc1ccccc1NC(=O)CSCc1ccc([N+](=O)[O-])cc1
2. FC(F)(F)c1cc(C(F)(F)F)c2ccc(N/N=C/c3ccccc3)nc2n1

Result ::
1. -0.1
2. -0.3
